- Test system: Plasmodium berghei
- protocol text: Luciferase/luciferin-expressing antifolate-resistant parasites were used to infect a culture of HepG2 cells that were pre-incubated with compounds. Infected hepatocytes emit light due to the luciferase reaction. Assay results are presented as the percent inhibition of light emission compared to control. […]
- Assay type: functional
- assay context: sporozoite, FFLUC_HILL_SLOPE 1.2, FFLUC_R_SQUARED 0.891, PBLUC_HILL_SLOPE 0.483, PBLUC_R_SQUARED 0.815, read-out: LUCIFERASE INFECTION ASSAY - IC50
measure: IC50 (nM)

>>> test_value("CC(C)Nc1cc(C(=O)Nc2ccccc2)ncn1")
196

---

- Test system: Plasmodium berghei
- protocol text: Luciferase/luciferin-expressing antifolate-resistant parasites were used to infect a culture of HepG2 cells that were pre-incubated with compounds. Infected hepatocytes emit light due to the luciferase reaction. Assay results are presented as the percent inhibition of light emission compared to control. […]
- Assay type: functional
- assay context: sporozoite, HEPG2TOX_HILL_SLOPE 8.71, HEPG2TOX_R_SQUARED 0.0596, PBLUC_HILL_SLOPE 2.5, PBLUC_R_SQUARED 0.642, read-out: LUCIFERASE INFECTION ASSAY - IC50
pIC50: −log10 of the molar value.
measure: pIC50

>>> test_value("CN(Cc1ccc(Cl)s1)C(=O)Cn1ncc(Br)c(Br)c1=O")
5.44

---

Listed next: entries and their corresponding IC90.
- System: Plasmodium berghei
- protocol text: Luciferase/luciferin-expressing antifolate-resistant parasites were used to infect a culture of HepG2 cells that were pre-incubated with compounds. Infected hepatocytes emit light due to the luciferase reaction. Assay results are presented as the percent inhibition of light emission compared to control. […]
- Type: functional
- assay context: sporozoite, read-out: LUCIFERASE INFECTION ASSAY - IC90
measure: IC90

>>> test_value("COc1cccc(C(=O)N(c2nc3ccccc3s2)c2c(C)cccc2C)c1")
"> 10 µM"
>>> test_value("CNc1nc2cnc(Nc3ccc(C(F)(F)F)cc3)cc2n1Cc1ccccc1")
"> 10 µM"
>>> test_value("N=C(Cc1cccs1)NOC(=O)Nc1cc(Cl)cc(Cl)c1")
"> 9.59 µM"
>>> test_value("CC(C)c1ccc(NC(=O)N2[C@@H]3CC[C@@H](C3)[C@H]2c2nc3c(OCC4CC4)cccc3[nH]2)cc1")
"> 10 µM"
>>> test_value("O=S(=O)(NCCNc1cnccn1)c1ccc(OC(F)(F)F)cc1")
"> 10 µM"
>>> test_value("COc1ccc(OCCN2CCN(c3ccnc4cc(Cl)ccc34)CC2)cc1")
"> 10 µM"
>>> test_value("CCCS(=O)(=O)/C(C#N)=C/c1ccc(-c2ccc(OC)cc2)s1")
"2.37 µM"
>>> test_value("Cc1ccc(C(=O)NCCSc2ccc(Cl)cc2)o1")
"> 10 µM"
>>> test_value("COc1ccc(/C=C(/C(=O)Nc2ccc(Cl)cc2)c2nc3ccccc3s2)cc1O")
"4.29 µM"
>>> test_value("COC(=O)c1cc(CSc2nc3ccccc3c(=O)n2-c2ccc(OC)cc2)oc1C")
"> 10 µM"
>>> test_value("CCOC(=O)c1cc(C#N)c(Sc2ccccn2)nc1C(F)(F)F")
"> 9.34 µM"
>>> test_value("CCn1c2ccccc2c2cc(/C=C(/C(=O)c3ccccc3)c3nc4ccccc4[nH]3)ccc21")
"> 10 µM"
>>> test_value("Cc1ccc(S(=O)(=O)Oc2cc(C)ccc2C)cc1")
"> 11.9 µM"
>>> test_value("CCc1cc(=O)n2nc(-c3ccccc3)c(-c3ccccc3)c2[nH]1")
"> 10.5 µM"
>>> test_value("COc1cc(NC(=O)N2CCc3nc(Nc4cc(Cl)cc(Cl)c4)ncc3C2)cc(OC)c1OC")
"> 6.54 µM"
>>> test_value("Cc1[nH]c2ccc(C(=O)OC(C)C(=O)NCc3ccccc3)cc2c1C (stereo unspecified)")
"8.96 µM"
>>> test_value("Fc1ccc(-c2csc3ncnc(Sc4nnnn4-c4ccccc4)c23)cc1")
"3.53 µM"
>>> test_value("c1cncc(Cn2cnc3cnc(Nc4cccnc4)cc32)c1")
"> 10 µM"
>>> test_value("CC(/N=c1\\ccccn1C(=O)Nc1ccc(Cl)c(Cl)c1)c1ccco1 (stereo unspecified)")
"9.14 µM"
>>> test_value("COc1ccc(OC)c(S(=O)(=O)N2[C@@H]3CC[C@@H](C3)[C@H]2c2nc3cccc(OCc4ccccc4)c3[nH]2)c1")
"> 10 µM"
>>> test_value("Cc1cccc(C(=O)Nc2ccc(N3CCc4sccc4C3)nc2)c1[N+](=O)[O-]")
"> 10 µM"

---

- System: Plasmodium berghei
- protocol text: Luciferase/luciferin-expressing antifolate-resistant parasites were used to infect a culture of HepG2 cells that were pre-incubated with compounds. Infected hepatocytes emit light due to the luciferase reaction. Assay results are presented as the percent inhibition of light emission compared to control. […]
- Assay type: functional
- assay context: sporozoite, FFLUC_HILL_SLOPE 3.21, FFLUC_R_SQUARED 0.745, HEPG2TOX_HILL_SLOPE 15.7, HEPG2TOX_R_SQUARED 0.428, PBLUC_HILL_SLOPE 5.31, PBLUC_R_SQUARED 0.793, read-out: LUCIFERASE INFECTION ASSAY - IC50
pIC50: −log10 of the molar value.
measure: pIC50

>>> test_value("CCOC(=O)c1sc(NC(=O)c2cccc(S(=O)(=O)N(C)c3ccc(OC)cc3)c2)cc1C")
5.19

---

- Tested on: Plasmodium berghei
- protocol text: Luciferase/luciferin-expressing antifolate-resistant parasites were used to infect a culture of HepG2 cells that were pre-incubated with compounds. Infected hepatocytes emit light due to the luciferase reaction. Assay results are presented as the percent inhibition of light emission compared to control. […]
- Assay type: functional
- assay context: sporozoite, HEPG2TOX_HILL_SLOPE 0.927, HEPG2TOX_R_SQUARED 0.795, PBLUC_HILL_SLOPE 2.2, PBLUC_R_SQUARED 0.668, read-out: LUCIFERASE INFECTION ASSAY - IC50
measure: IC50 (nM)

>>> test_value("O=C(Nc1nc2ccccn2c1C(=O)NC1CCCC1)c1ccc(Cl)cc1")
447

---

- Test system: Plasmodium berghei
- protocol text: Luciferase/luciferin-expressing antifolate-resistant parasites were used to infect a culture of HepG2 cells that were pre-incubated with compounds. Infected hepatocytes emit light due to the luciferase reaction. Assay results are presented as the percent inhibition of light emission compared to control. […]
- Format: functional
- assay context: sporozoite, HEPG2TOX_HILL_SLOPE 0.129, HEPG2TOX_R_SQUARED 0.379, read-out: LUCIFERASE INFECTION ASSAY - IC50
pIC50: −log10 of the molar value.
measure: pIC50

>>> test_value("O=C(CCC1CCCC1)N1CCC(c2nnc3n2CCC3)CC1")
"< 5.00"

---

- System: Plasmodium berghei
- protocol text: Luciferase/luciferin-expressing antifolate-resistant parasites were used to infect a culture of HepG2 cells that were pre-incubated with compounds. Infected hepatocytes emit light due to the luciferase reaction. Assay results are presented as the percent inhibition of light emission compared to control. […]
- Format: functional
- assay context: sporozoite, HEPG2TOX_HILL_SLOPE 0.838, HEPG2TOX_R_SQUARED 0.788, PBLUC_HILL_SLOPE 20.5, PBLUC_R_SQUARED 0.865, read-out: LUCIFERASE INFECTION ASSAY - IC50
pIC50: −log10 of the molar value.
measure: pIC50

>>> test_value("O=C(Cc1cn2ccsc2n1)NNC(=O)c1cc(Cl)ccc1O")
6.43

---

- System: Plasmodium berghei
- protocol text: Luciferase/luciferin-expressing antifolate-resistant parasites were used to infect a culture of HepG2 cells that were pre-incubated with compounds. Infected hepatocytes emit light due to the luciferase reaction. Assay results are presented as the percent inhibition of light emission compared to control. […]
- Assay type: functional
- assay context: sporozoite, HEPG2TOX_HILL_SLOPE 3.15, HEPG2TOX_R_SQUARED 0.897, PBLUC_HILL_SLOPE 11.5, PBLUC_R_SQUARED 0.814, read-out: LUCIFERASE INFECTION ASSAY - IC50
measure: IC50 (nM)

>>> test_value("CC(c1cccc(NC(=O)c2ccccc2)c1)N(C)c1ccc([N+](=O)[O-])cn1 (stereo unspecified)")
1080

---

- System: Plasmodium berghei
- protocol text: Luciferase/luciferin-expressing antifolate-resistant parasites were used to infect a culture of HepG2 cells that were pre-incubated with compounds. Infected hepatocytes emit light due to the luciferase reaction. Assay results are presented as the percent inhibition of light emission compared to control. […]
- Type: functional
- assay context: sporozoite, HEPG2TOX_HILL_SLOPE 0.258, HEPG2TOX_R_SQUARED 0.871, PBLUC_HILL_SLOPE 2.72, PBLUC_R_SQUARED 0.839, read-out: LUCIFERASE INFECTION ASSAY - IC50
measure: IC50 (nM)

>>> test_value("Cc1nnc(NC(=O)c2cn(-c3ccccc3)nc2-c2ccccc2C)o1")
114
